// data source = PubChem BioAssay (EPA / NIEHS)

Read-out: sulfotransferase 2A1 (SULT2A1), SULT2A1 (gene 6822)
Test: LTEA_HepaRG_SULT2A1: Life Technologies and Expression Analysis (LTEA) Assay for sulfotransferase 2A1 (SULT2A1) using HepaRG (AID 2283531)
Conditions: mRNA level, 48 h; actives raise or lower the signal
Calls of active or inactive are those of the source. Rule for the calls: active = hit-call score of the fitted dose curve at least 0.9, where 1 is the maximum; inactive = score below 0.9.
Measurement kind: AC50

>  <Compound>
COP(=O)(OC)C(O)C(Cl)(Cl)Cl (centres undefined)

>  <Value reported>
inactive

$$$$
>  <Compound>
CC(Oc1cccc(Cl)c1)C(=O)O (centres undefined)

>  <Value reported>
inactive

$$$$
>  <Compound>
CCNc1nc(Cl)nc(NC(C)(C)C#N)n1

>  <Value reported>
inactive

$$$$
>  <Compound>
FC(F)C(F)(F)OCC(Cn1cncn1)c1ccc(Cl)cc1Cl (centres undefined)

>  <Value reported>
53.8 µM (active)

$$$$
>  <Compound>
CN1COCN(Cc2cnc(Cl)s2)C1=N[N+](=O)[O-]

>  <Value reported>
inactive

$$$$
>  <Compound>
Cc1cc(C2CC2)nc(Nc2ccccc2)n1

>  <Value reported>
inactive

$$$$
>  <Compound>
Nc1c(Cl)cc([N+](=O)[O-])cc1Cl

>  <Value reported>
50 µM (active)

$$$$
>  <Compound>
CCOP(=O)(NC(C)C)Oc1ccc(SC)c(C)c1 (centres undefined)

>  <Value reported>
inactive

$$$$
>  <Compound>
Cc1nn(-c2cc(NS(C)(=O)=O)c(Cl)cc2Cl)c(=O)n1C(F)F

>  <Value reported>
inactive

$$$$
